measured.on: human transferrin receptor (hTfR) (Homo sapiens, UniProt P02786)
Construct: made in house
Sequence (P02786 89-760 limits assumed): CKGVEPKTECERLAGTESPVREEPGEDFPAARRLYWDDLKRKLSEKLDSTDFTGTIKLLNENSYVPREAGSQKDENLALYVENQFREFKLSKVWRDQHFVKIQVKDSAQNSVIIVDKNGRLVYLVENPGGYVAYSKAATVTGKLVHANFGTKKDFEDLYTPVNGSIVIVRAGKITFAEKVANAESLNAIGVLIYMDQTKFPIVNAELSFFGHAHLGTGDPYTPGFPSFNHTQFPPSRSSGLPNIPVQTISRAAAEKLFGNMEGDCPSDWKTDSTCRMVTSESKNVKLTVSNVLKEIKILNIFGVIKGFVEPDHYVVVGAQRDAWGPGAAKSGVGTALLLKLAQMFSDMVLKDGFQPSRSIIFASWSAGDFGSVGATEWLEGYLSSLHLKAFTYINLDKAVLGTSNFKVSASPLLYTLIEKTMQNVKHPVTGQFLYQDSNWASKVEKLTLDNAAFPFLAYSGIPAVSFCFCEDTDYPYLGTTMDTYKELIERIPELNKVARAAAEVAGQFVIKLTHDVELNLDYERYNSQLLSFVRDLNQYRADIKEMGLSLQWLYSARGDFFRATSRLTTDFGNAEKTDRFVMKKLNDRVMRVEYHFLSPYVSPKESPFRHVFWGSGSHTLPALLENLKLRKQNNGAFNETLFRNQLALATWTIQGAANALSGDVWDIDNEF
protocol.details: Evaluation of molecular interaction between transferrin receptor (hTfR) and peptide using surface plasmon resonance (SPR)
Assay type: binding
conditions: surface plasmon resonance, binding to hTfR; KD class symbol; read-out: SPR (KD value)
pKd: −log10 of the molar value.
reported.metric: pKd

Data request: Request the reported pKd associated with CC[C@H](C)[C@@H]1NC(=O)[C@H](Cc2ccc(O)cc2)NC(=O)[C@H](Cc2ccc(O)cc2)NC(=O)[C@H](CC(N)=O)NC(=O)[C@H](Cc2c[nH]c3ccc(Cl)cc23)NC(=O)[C@H](C(C)C)NC(=O)[C@H](Cc2ccccc2)N(C)C(=O)[C@H](C(C)C)NC(=O)[C@H](C)NC(=O)CSC[C@@H](C(=O)NCCOCCOCCOCCOCCC(N)=O)NC(=O)[C@H](Cc2ccc(O)cc2)N(C)C(=O)[C@H](Cc2ccccc2)NC(=O)[C@@H](CCCNC(=N)N)NC(=O)[C@H](CCCNC(=N)N)NC(=O)[C@H]([C@@H](C)CC)NC1=O
Data returned: 7.00 to 9.00

Data request: Request the reported pKd associated with CC[C@H](C)[C@@H]1NC(=O)[C@H](Cc2ccc(O)cc2)NC(=O)[C@H](Cc2ccc(O)cc2)NC(=O)[C@H](CC(N)=O)NC(=O)[C@H](Cc2c[nH]c3ccccc23)NC(=O)[C@H](C(C)C)NC(=O)[C@H](Cc2ccccc2)N(C)C(=O)[C@H](C(C)C)NC(=O)[C@H](C)NC(=O)CSC[C@@H](C(=O)NCCOCCOCCOCCOCCC(N)=O)NC(=O)[C@H](Cc2ccc(O)cc2)N(C)C(=O)[C@H](Cc2ccccc2)NC(=O)[C@@H](CCCNC(=N)N)NC(=O)[C@H](CCCNC(=N)N)NC(=O)[C@H]([C@@H](C)CC)NC1=O
Data returned: 7.00 to 9.00
